Biological target: human C1 (Homo sapiens)
Sequence (P09871 16-688): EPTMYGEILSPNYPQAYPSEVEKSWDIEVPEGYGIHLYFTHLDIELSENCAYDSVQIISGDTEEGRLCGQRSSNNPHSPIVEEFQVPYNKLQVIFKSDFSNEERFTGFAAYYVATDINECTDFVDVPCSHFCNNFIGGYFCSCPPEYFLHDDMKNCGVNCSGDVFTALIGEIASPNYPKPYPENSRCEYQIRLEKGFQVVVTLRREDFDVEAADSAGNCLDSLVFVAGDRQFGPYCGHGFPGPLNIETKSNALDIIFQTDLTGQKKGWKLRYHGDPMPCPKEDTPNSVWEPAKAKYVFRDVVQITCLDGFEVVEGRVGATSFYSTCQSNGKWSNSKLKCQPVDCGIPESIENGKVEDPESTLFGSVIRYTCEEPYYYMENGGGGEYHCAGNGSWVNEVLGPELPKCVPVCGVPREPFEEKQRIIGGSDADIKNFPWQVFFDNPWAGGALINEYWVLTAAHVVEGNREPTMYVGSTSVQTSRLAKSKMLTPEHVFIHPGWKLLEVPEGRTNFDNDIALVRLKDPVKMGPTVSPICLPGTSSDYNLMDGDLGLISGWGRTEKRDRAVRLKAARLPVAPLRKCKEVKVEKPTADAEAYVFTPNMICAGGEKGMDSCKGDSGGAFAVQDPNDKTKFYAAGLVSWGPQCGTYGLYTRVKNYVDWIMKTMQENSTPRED
Sequence (P00736 18-705 partner): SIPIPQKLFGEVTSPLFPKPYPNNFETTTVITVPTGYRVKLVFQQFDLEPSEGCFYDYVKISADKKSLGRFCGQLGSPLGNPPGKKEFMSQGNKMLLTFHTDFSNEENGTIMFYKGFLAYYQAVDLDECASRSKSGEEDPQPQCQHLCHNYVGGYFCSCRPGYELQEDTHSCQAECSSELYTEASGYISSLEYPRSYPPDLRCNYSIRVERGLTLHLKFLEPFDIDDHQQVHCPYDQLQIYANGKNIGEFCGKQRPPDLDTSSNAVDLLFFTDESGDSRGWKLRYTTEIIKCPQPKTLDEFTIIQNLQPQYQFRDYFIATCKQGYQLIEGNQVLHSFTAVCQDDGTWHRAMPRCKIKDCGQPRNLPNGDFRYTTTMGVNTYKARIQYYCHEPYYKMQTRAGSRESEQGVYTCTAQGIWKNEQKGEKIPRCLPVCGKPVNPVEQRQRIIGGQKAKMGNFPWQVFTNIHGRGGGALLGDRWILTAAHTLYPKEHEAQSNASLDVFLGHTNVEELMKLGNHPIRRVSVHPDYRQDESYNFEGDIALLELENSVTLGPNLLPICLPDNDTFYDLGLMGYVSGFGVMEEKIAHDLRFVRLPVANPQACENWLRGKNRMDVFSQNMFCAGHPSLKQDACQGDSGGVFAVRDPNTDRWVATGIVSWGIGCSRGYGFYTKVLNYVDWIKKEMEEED
Sequence (P02745 23-245 partner): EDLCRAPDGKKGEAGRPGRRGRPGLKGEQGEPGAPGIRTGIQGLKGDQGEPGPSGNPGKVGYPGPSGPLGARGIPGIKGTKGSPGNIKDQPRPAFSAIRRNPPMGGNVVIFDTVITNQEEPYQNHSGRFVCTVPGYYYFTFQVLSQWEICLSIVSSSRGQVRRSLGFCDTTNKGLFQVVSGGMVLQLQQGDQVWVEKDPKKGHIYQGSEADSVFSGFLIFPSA
Sequence (P02746 28-253 partner): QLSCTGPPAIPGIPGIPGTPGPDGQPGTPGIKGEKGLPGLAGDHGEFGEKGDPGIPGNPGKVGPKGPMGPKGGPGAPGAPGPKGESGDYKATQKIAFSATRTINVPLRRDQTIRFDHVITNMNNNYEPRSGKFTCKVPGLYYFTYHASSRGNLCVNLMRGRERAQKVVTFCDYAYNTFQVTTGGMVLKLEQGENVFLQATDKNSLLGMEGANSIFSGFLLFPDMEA
Sequence (P02747 29-245 partner): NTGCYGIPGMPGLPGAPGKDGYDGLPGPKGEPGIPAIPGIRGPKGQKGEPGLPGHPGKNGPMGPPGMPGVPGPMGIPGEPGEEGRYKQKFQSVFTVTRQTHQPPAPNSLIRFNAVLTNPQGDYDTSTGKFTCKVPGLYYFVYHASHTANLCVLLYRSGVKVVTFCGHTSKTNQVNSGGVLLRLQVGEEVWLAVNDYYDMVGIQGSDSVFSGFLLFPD
Assay: Test Code 026 (C1 inhibitor): activated human C1 destroys fluid phase human C2 in presence of C4
Type: biochemical
Settings: activity in wells, twofold serial dilution; higher well number indicates higher activity
endpoint.name: C1 026 Wells

INSERT INTO results (compound, endpoint_name, reported_value) VALUES
  ('O=S(=O)(O)OC[C@H]1O[C@@H](OC[C@H]2O[C@H](OC[C@H]3O[C@H](OS(=O)(=O)O)[C@H](OS(=O)(=O)O)[C@@H](OS(=O)(=O)O)[C@@H]3OS(=O)(=O)O)[C@H](OS(=O)(=O)O)[C@@H](OS(=O)(=O)O)[C@H]2OS(=O)(=O)O)[C@H](OS(=O)(=O)O)[C@@H](OS(=O)(=O)O)[C@@H]1O[C@H]1O[C@H](COS(=O)(=O)O)[C@@H](O[C@H]2O[C@H](COS(=O)(=O)O)[C@@H](OS(=O)(=O)O)[C@H](OS(=O)(=O)O)[C@H]2OS(=O)(=O)O)[C@H](OS(=O)(=O)O)[C@H]1OS(=O)(=O)O [drawing 15]', 'C1 026 Wells', '+9 Wells'),
  ('O=S(=O)(O)OC[C@H]1O[C@@H](OC[C@H]2O[C@H](OC[C@H]3O[C@H](OS(=O)(=O)O)[C@H](OS(=O)(=O)O)[C@@H](OS(=O)(=O)O)[C@@H]3OS(=O)(=O)O)[C@H](OS(=O)(=O)O)[C@@H](OS(=O)(=O)O)[C@H]2OS(=O)(=O)O)[C@H](OS(=O)(=O)O)[C@@H](OS(=O)(=O)O)[C@H]1OS(=O)(=O)O [drawing 7]', 'C1 026 Wells', '+9 Wells'),
  ('O=S(=O)(O)OC[C@H]1O[C@@H](OC[C@H]2O[C@H](OC[C@H]3O[C@H](OS(=O)(=O)O)[C@H](OS(=O)(=O)O)[C@@H](OS(=O)(=O)O)[C@@H]3OS(=O)(=O)O)[C@H](OS(=O)(=O)O)[C@@H](OS(=O)(=O)O)[C@H]2OS(=O)(=O)O)[C@H](OS(=O)(=O)O)[C@@H](OS(=O)(=O)O)[C@H]1OS(=O)(=O)O [drawing 6]', 'C1 026 Wells', '+9 Wells'),
  ('O=S(=O)(O)OC[C@H]1O[C@H](OC[C@H]2O[C@H](OS(=O)(=O)O)[C@H](OS(=O)(=O)O)[C@@H](OS(=O)(=O)O)[C@@H]2OS(=O)(=O)O)[C@H](OS(=O)(=O)O)[C@@H](OS(=O)(=O)O)[C@H]1OS(=O)(=O)O', 'C1 026 Wells', '+8 Wells'),
  ('O=S(=O)(O)OC[C@H]1O[C@@H](OC[C@H]2O[C@H](OC[C@H]3OC(OS(=O)(=O)O)[C@H](OS(=O)(=O)O)[C@@H](OS(=O)(=O)O)[C@@H]3OS(=O)(=O)O)[C@H](OS(=O)(=O)O)[C@@H](OS(=O)(=O)O)[C@H]2OS(=O)(=O)O)[C@H](OS(=O)(=O)O)[C@@H](OS(=O)(=O)O)[C@@H]1O[C@H]1O[C@H](COS(=O)(=O)O)[C@@H](OS(=O)(=O)O)[C@H](OS(=O)(=O)O)[C@H]1OS(=O)(=O)O (stereo partly drawn) [drawing 11]', 'C1 026 Wells', '+10 Wells');

Now examine the next entry.
What reported C1 026 Wells corresponds to O=S(=O)(O)OC[C@H]1O[C@@H](OC[C@H]2O[C@H](OC[C@H]3O[C@H](OS(=O)(=O)O)[C@H](OS(=O)(=O)O)[C@@H](OS(=O)(=O)O)[C@@H]3OS(=O)(=O)O)[C@H](OS(=O)(=O)O)[C@@H](OS(=O)(=O)O)[C@H]2OS(=O)(=O)O)[C@H](OS(=O)(=O)O)[C@@H](OS(=O)(=O)O)[C@@H]1O[C@H]1O[C@H](COS(=O)(=O)O)[C@@H](O[C@H]2O[C@H](COS(=O)(=O)O)[C@@H](OS(=O)(=O)O)[C@H](OS(=O)(=O)O)[C@H]2OS(=O)(=O)O)[C@H](OS(=O)(=O)O)[C@H]1OS(=O)(=O)O [drawing 14] on human C1 (Homo sapiens)?
+9 Wells
